Measured IC50, listed per entry.
# System: human TRPA1 channel (Homo sapiens (Human))
# Assay info: hTRPA1 CHO Ca2+ FLIPR Tetra assay, block of cinnamaldehyde induced calcium influx
# Assay type: cell-based
# Condition info: read-out: hTRPA1 IC50 (90 min); CHO cells expressing TRPA1; compounds incubated 90 minutes at room temperature before cinnamaldehyde agonist; Hill coefficient fixed to 1.5
Quick reminder: number only, in µM, skip the unit.

# example entries with known answers
[[record]]
molecular_string = "Cn1cnc2ncn(Cc3nc([C@H]4[C@@H]5CN(c6ccc7ncsc7c6)C[C@@H]54)no3)c(=O)c21"
result_number = 0.01

[[record]]
molecular_string = "CN(C)C(=O)CNc1nc2ncn(Cc3nc([C@H]4[C@@H]5C=C(c6ccccc6)C[C@@H]54)no3)c(=O)c2n1C"
result_number = 0.026


Task: // IC50 lookup, key: Cn1cnc2ncn(Cc3nc([C@H]4[C@@H]5C=C(c6ccncc6)C[C@@H]54)no3)c(=O)c21
Result: 0.096

Task: Again, but for Cn1cnc2ncn(Cc3nc([C@H]4[C@@H]5CN(c6ccc(Cl)cn6)C[C@@H]54)no3)c(=O)c21
Result: 0.086

Task: Again, but for O=c1c2ccc(Cl)nc2ncn1Cc1nc([C@H]2[C@@H]3CN(c4cccc(F)c4)C[C@@H]32)no1
Result: 0.035

Task: Again, but for Cn1cnc2ncn(Cc3nc([C@H]4[C@@H]5C=C(c6ccccn6)C[C@@H]54)no3)c(=O)c21
Result: 0.21

Task: Again, but for Cn1cnc2ncn(Cc3nc([C@H]4[C@@H]5CN(c6ccnc(F)c6)C[C@@H]54)no3)c(=O)c21
Result: 0.073

---

# System: human TRPA1 channel (Homo sapiens (Human), UniProt O75762)
# Sequence (O75762 whole entry): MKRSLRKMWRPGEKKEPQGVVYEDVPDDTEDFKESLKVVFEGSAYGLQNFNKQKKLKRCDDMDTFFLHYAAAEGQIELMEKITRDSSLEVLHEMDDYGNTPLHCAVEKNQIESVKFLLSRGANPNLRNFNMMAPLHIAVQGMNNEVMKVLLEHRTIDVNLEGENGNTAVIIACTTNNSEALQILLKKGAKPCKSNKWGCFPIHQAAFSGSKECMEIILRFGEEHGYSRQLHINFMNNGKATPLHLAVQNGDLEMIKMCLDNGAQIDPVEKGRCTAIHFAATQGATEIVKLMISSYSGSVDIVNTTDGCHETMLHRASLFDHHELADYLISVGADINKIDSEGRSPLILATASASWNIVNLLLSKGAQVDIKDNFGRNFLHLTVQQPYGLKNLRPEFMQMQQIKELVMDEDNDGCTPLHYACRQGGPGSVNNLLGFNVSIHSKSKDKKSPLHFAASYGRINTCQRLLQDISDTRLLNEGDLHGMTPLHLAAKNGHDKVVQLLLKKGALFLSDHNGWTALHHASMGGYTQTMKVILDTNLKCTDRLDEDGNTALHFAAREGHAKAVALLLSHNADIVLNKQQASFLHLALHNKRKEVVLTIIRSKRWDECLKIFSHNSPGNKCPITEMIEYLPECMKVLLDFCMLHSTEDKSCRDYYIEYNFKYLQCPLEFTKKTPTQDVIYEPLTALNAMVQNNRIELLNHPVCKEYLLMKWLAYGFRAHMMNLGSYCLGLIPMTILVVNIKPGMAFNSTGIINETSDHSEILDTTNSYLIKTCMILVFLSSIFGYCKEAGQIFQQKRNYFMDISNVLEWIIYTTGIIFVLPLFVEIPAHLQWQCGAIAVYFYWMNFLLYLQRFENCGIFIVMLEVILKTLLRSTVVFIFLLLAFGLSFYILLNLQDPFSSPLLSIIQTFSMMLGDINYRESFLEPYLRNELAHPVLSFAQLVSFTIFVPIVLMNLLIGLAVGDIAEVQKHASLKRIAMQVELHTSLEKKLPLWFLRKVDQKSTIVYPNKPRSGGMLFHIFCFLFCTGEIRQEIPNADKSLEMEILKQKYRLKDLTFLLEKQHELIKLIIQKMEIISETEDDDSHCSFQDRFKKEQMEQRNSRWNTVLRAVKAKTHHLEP
# Assay info: hTRPA1 CHO Ca2+ FLIPR Tetra assay, block of cinnamaldehyde induced calcium influx
# Assay type: cell-based
# Condition info: read-out: hTRPA1 IC50 (10 min); CHO cells expressing TRPA1; compounds incubated 10 minutes at room temperature before cinnamaldehyde agonist; Hill coefficient fixed to 1.5
Observation type: IC50 (µM)
Quick reminder: number only, in µM, skip the unit.

# example entries with known answers
[[record]]
molecule = "Cn1cnc2ncn(Cc3nc([C@H]4[C@@H]5C=C(c6ccccn6)C[C@@H]54)no3)c(=O)c21 [Example Compound 129]"
result_number = 0.209

[[record]]
molecule = "Cn1cnc2ncn(Cc3nc([C@H]4[C@@H]5CN(c6cc(Cl)ccn6)C[C@@H]54)no3)c(=O)c21 [Example Compound 212]"
result_number = 0.0847

[[record]]
molecule = "Cn1nnc2ncn(Cc3nc([C@@H]4CC[C@@H](c5ccc(F)cc5)C4)no3)c(=O)c21 [Example Compound 106]"
result_number = 0.0403

[[record]]
molecule = "Cn1cnc2ncn(Cc3nc([C@H]4C[C@H](C(F)(F)c5cccc(F)c5)C4)no3)c(=O)c21 (stereo in doubt) [Example Compound 248]"
result_number = 0.0111

[[record]]
molecule = "Cn1cnc2ncn(Cc3nc([C@H]4[C@@H]5CN(c6cc(F)c(C#N)c(F)c6)C[C@@H]54)no3)c(=O)c21 [Example Compound 258]"
result_number = 0.0782


Now look at this entry.
Task: // IC50 lookup, key: COc1ccc(C2=C[C@@H]3[C@H](C2)[C@H]3c2noc(Cn3cnc4ncn(C)c4c3=O)n2)cc1 [Example Compound 118]
Result: 0.0418
